# target-desc: polyclonal IgG (Gammanorm, Octapharma, Sweden)
# method: SPR (Biacore 8K+), variant amine-coupled to CM5, Gammanorm as analyte, 1:1 kinetic fit
attribute-measured: Kd (µM)

- pAM257 (Protein L C2 domain; H, H, Y at positions 10, 45, 60) (designed binder) PKEEVTIKVHLIFADGKTQTAEFKGTFEEATAKAYAYADLLAKEHGEYTADLEDGGNTIYIKFAGKETPETPEE: 0.047
- pAM248 (D1 domain; N10H, N45H, N60Q) (designed binder) PKEEVTIKAHLIFADGKTQTAEFKGTFEEATAEAYRYADLLAKVHGEYTADLEDGGYTIQIKFAGKEQPGEN: 0.016
- pAM245 (Protein L C3 domain; H, H, Q at positions 10, 45, 60) (designed binder) PKEEVTIKVHLIFADGKIQTAEFKGTFEEATAKAYAYANLLAKEHGEYTADLEDGGNTIQIKFAGKETPETPEE: 0.065
